Experiment: Nuclear factor erythroid 2-related factor 2/antioxidant responsive element (Nrf2/ARE) small molecule agonists: qHTS cell viability counter screen in human keratinocytes (AID 1919968); also: % is scaled to controls: 0 for no effect and ±100 for the full control effect; nearly all actives have a fitted effect of over 55% in size
Conditions: KeratinoSens HaCaT ARE cells viability, CellTiter-Fluor, 24 h; series mostly up to 92.4 µM
Excerpt: U.S. Tox21 Program National Center for Advancing Translational Sciences [NCATS] Division of Preclinical Innovation [DPI] U.S. Environmental Protection Agency [EPA] National Institutes of Environmental Health Sciences [NIEHS] National Toxicology Program [NTP] U.S. Food and Drug Administration [FDA] […] The activation of the report gene under culture conditions can be detected by ONE-Glo Luciferase Assay System (Promega, Madison, WI). […]
Results filed as inconclusive are left out. Calls of active or inactive are those of the source. Calls follow the shape of the dose curve; as a rule, active = well fitted cell-killing curve with a large enough effect in the repeat runs; inconclusive = weak or mixed curves, or effect the other way; inactive = flat fitted curve, though single readings scatter.
MEASURED_PARAMETER: activity change, negative = cytotoxicity

Here is how some molecules turned out for activity change, negative = cytotoxicity.
BrC/C=C/CBr : -3.14% [at 19 µM] (inactive)
CCN1CCN(c2cc(-c3ccc(F)cc3)c3c(n2)CCCCCC3)CC1 : -1.5% [at 19 µM] (inactive)
N[C@@H](CSCCCO)C(=O)O : 5.92% [at 19 µM] (inactive)
O=S(O)O : -0.591% [at 19 µM] (inactive)

Look at this molecule and give its reported activity change, negative = cytotoxicity. `CCCCN1C=CN(C)C1`
3.2% [at 19 µM] (inactive)

Another molecule to check: `C[C@@H]1CN(c2c(F)c(N)c3c(=O)c(C(=O)O)cn(C4CC4)c3c2F)C[C@H](C)N1`
1.83% [at 19 µM] (inactive)

Another molecule to check: CCOC(CN1CCN(CC(C)C(=O)c2ccccc2)CC1)c1ccccc1 (configuration not stated)
-17.1% [at 19 µM] (inactive)
